Target: T1, human EpCAM-mFc (human)
T1 chain: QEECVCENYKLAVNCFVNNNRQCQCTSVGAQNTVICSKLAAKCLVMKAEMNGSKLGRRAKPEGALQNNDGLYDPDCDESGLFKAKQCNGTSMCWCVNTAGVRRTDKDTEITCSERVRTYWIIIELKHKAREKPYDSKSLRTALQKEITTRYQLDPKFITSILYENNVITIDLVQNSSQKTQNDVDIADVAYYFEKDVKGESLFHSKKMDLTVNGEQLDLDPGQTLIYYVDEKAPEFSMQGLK
Test: ELISA
Recorded measurements of Kd, one per entry
readoutType: Kd

EP05-3014 (1565-Y) (antibody) chain 1: QVQLVQSGAEVKKPGASVKVSCKASGYTFTNYYIHWVRQAPGQRLEYIGWIYPGNVYIQYNEKFKGRATLTADKSASTAYMELSSLRSEDTAVYYCARDGYWFAYWGQGTLVTVSS chain 2: QGQSGQGWWPPCQGGAWCEQRIGGGSSGGAVGLLAPPGGLSGRSDNIGGSDIVLTQTPLSLSVTPGQPASISCRSSRSLLHSDGFTYLYWFLQKPGQSPQLLIYQTSNLASGVPDRFSSSGSGTDFTLKISRVEAEDVGVYYCAQNLELPNTFGQGTKLEIK    8.6 nM
EP07-3014 (1565-Y) (antibody) chain 1: QVQLVQSGAEVKKPGASVKVSCKASGYTFTNYYIHWVRQAPGQRLEYIGWIYPGNVYIQYNEKFKGRATLTADKSASTAYMELSSLRSEDTAVYYCARDGYWFAYWGQGTLVTVSS chain 2: QGQSGQGHSGCPRLFDRCSAPAGGGSSGGAVGLLAPPGGLSGRSDNIGGSDIVLTQTPLSLSVTPGQPASISCRSSRSLLHSDGFTYLYWFLQKPGQSPQLLIYQTSNLASGVPDRFSSSGSGTDFTLKISRVEAEDVGVYYCAQNLELPNTFGQGTKLEIK    37.6 nM
